Documented pIC50 across a set of compounds
- Assay Target: Growth hormone secretagogue receptor type 1 (Homo sapiens)
- Sequence (Q92847 whole entry): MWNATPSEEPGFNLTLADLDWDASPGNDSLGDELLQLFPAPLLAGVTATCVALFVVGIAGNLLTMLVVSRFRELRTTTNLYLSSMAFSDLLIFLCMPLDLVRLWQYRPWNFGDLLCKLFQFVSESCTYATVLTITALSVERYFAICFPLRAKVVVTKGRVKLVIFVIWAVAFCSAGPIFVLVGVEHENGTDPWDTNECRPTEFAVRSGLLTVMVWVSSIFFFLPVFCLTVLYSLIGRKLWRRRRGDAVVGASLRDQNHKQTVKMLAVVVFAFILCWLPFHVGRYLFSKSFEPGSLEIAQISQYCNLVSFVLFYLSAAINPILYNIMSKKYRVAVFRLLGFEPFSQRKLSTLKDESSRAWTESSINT
- Protocol Notes: Binding affinity to cloned human growth hormone secretagogue receptor type 1 in a competitive binding assay with [35S]MK-0677 as a radiolabeled ligand
Residues, ends and D or L forms follow the SMILES beside them. *: point of attachment. Octanoyl = CCCCCCCC(=O)*
Conceptually, pIC50 converts a concentration in mol/L into minus its log10.

Sample answers from the record:
Data request: Data request, read-out pIC50, for `CCCCCCCC(=O)OC[C@H](NC(=O)[C@H](CO)NC(=O)CN)C(=O)N[C@@H](Cc1ccccc1)C(=O)N[C@@H](CC(C)C)C(=O)N[C@@H](CO)C(=O)N1CCC[C@H]1C(=O)N[C@@H](CCC(=O)O)C(=O)N[C@@H](Cc1c[nH]cn1)C(=O)N[C@@H](CCC(N)=O)C(=O)N[C@@H](CCCN=C(N)N)C(=O)N[C@H](C(=O)N[C@@H](CCC(N)=O)C(=O)N[C@@H](CCC(N)=O)C(=O)O)C(C)C`
Data returned: 8.02

Data request: Data request, read-out pIC50, for CCCCCCCC(=O)OC[C@H](NC(=O)[C@H](CO)NC(=O)CN)C(=O)N[C@@H](Cc1ccccc1)C(=O)N[C@@H](CC(C)C)C(=O)N[C@@H](CO)C(=O)N1CCC[C@H]1C(=O)N[C@@H](CCC(=O)O)C(=O)N[C@@H](Cc1c[nH]cn1)C(=O)N[C@@H](CCC(N)=O)C(=O)N[C@@H](CCCNC(=N)N)C(=O)N[C@H](C(=O)N[C@@H](CCC(N)=O)C(=O)N[C@@H](CCC(N)=O)C(=O)N[C@@H](CCCNC(=N)N)C(=O)N[C@@H](CCCCN)C(=O)N[C@@H](CCC(=O)O)C(=O)N[C@@H](CO)C(N)=O)C(C)C (H-GSS(Octanoyl)FLSPEHQRVQQRKES-NH2)
Data returned: 9.11

Next up:
Data request: Data request, read-out pIC50, for `CCCCCCCC(=O)NC[C@H](NC(=O)[C@H](CO)NC(=O)CN)C(=O)N[C@@H](Cc1ccccc1)C(=O)N[C@@H](CC(C)C)C(=O)N[C@@H](CO)C(=O)N1CCC[C@H]1C(=O)N[C@@H](CCC(=O)O)C(=O)N[C@@H](Cc1c[nH]cn1)C(=O)N[C@@H](CCC(N)=O)C(=O)N[C@@H](CCCNC(=N)N)C(=O)N[C@H](C(=O)N[C@@H](CCC(N)=O)C(=O)N[C@@H](CCC(N)=O)C(=O)O)C(C)C`
Data returned: 8.10
